TGT: pre-pro-insulin glargine
Attribute: desThr
Write the number in area % without appending the unit.

trypsin variant SEQ ID NO: 100 (protein) IVGGYTCAANSIPYQVSLNSGSHRCGGSLINSQWVVSAAHCYKPRIQVRLGEHNIDVLEGNEQFINAAKIITHPNFNPNTLDNDIMLIKLSSPATLNSHVATVSLPTSCAAAGTECLISGWGNTCSSGSSMPSLLQCLKAPVLSDSSCKSSYPGQITGNMICVGFLEGGADACQGDSGGPVVCNGQLQGIVSSGYGCAQKNKPGVYTKVCNYVNWIQQTIAAN; 0.3

Consider the record given below.
In: May I ask what desThr has been recorded for trypsin variant SEQ ID NO: 79 (protein) IVGGYTCAANSIPYQVSLNSGSHRCGGSLINSQWVVSAAHCYKPRIQVRLGEHNIHVLEGNEQFINAAKIITHPNFNPNTLDNDIMLIKLSSPATLNSHVATVSLPRSCAAAGTECLISGWGNTASSGSSMPSLLQCLKAPVLSDSSCKSSYPGQITGNMICVGFLEGGKDACQGDSGGPVVCNGQLQGIVSSGYGCAQKNKPGVYTKVCNYVNWIQQTIAAN ?
Out: 0.3
